- assayedTarget: HCV polymerase 1B (Δ21 NS5B, BK) (Hepatitis C virus genotype 1b, UniProt P26663)
- Construct: 20 to 50 nM Δ21 NS5B
- Sequence (P26663 2420-2989, stated change not applied): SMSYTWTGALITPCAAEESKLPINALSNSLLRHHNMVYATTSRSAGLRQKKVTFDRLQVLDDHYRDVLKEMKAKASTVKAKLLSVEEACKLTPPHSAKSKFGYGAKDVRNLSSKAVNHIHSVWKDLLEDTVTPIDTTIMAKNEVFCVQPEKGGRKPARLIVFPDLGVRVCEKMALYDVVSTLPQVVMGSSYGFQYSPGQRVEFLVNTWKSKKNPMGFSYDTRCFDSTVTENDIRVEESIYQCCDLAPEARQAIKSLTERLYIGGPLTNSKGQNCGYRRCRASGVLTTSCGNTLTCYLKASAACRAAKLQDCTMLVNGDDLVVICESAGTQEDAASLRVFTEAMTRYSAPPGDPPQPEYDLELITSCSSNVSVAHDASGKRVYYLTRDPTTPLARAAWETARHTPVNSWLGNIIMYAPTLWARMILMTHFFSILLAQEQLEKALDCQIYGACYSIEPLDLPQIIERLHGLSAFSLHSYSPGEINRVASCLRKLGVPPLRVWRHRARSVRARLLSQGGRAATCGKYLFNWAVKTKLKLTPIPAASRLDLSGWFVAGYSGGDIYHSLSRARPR
- testName: biochemical
pIC50: −log10 of the molar value.
experimentalEndpoint: pIC50

Examples with answers:
[
  {
    "compound": "CN(Cc1csc(NC(=O)c2cc(N3CCC(=O)NC3=O)cc(C(C)(C)C)c2O)c1)S(C)(=O)=O [IA-L3-1.95]",
    "pIC50": "7.00 to 8.00"
  },
  {
    "compound": "COc1c(C#Cc2ccc(NS(C)(=O)=O)c(C(F)(F)F)c2)cc(N2CCC(=O)NC2=O)cc1C(C)(C)C [IA-L2-1.19]",
    "pIC50": "7.00 to 8.00"
  },
  {
    "compound": "COc1c(NC(=O)c2ccc(NS(C)(=O)=O)cc2)cc(N2CCC(=O)NC2=O)cc1C(C)(C)C [IA-L4-1.9]",
    "pIC50": "7.00 to 8.00"
  },
  {
    "compound": "COc1c(C#Cc2ccc(NS(C)(=O)=O)cc2Cl)cc(-n2ccc(=O)[nH]c2=O)cc1C(C)(C)C [IB-L2-1.2]",
    "pIC50": "7.00 to 8.00"
  },
  {
    "compound": "COc1c(C(=O)Nc2ccc(NS(=O)(=O)CC(C)C)cc2)cc(N2CCC(=O)NC2=O)cc1C(C)(C)C [IA-L3-1.52]",
    "pIC50": "6.00 to 7.00"
  },
  {
    "compound": "CC(C)(C)c1cc(N2CCC(=O)NC2=O)cc(CN2CCCc3cc(NS(C)(=O)=O)ccc32)c1O [IA-L5-1-2.2]",
    "pIC50": "< 6.00"
  }
]

Shift focus to the following entry.
Task: Name the reported pIC50 value associated with the compound COc1c(-c2ccc(/C=N/NS(C)(=O)=O)c(F)c2)cc(-n2ccc(=O)[nH]c2=O)cc1C(C)(C)C [IB-L0-1.3]
Result: 7.00 to 8.00
